Tested on: MDA-MB-231
method.notes: Growth inhibition of human MDA-MB-231 cells after 5 days by MTT assay
Type: functional
run.parameters: MDA-MB-231, 120 h

compound | GI50 (nM)
CC(=O)Nc1ccc(C(=O)Nc2ccccc2NC(=O)OCc2ccc(OC(=O)/C=C(C)/C=C/C=C(C)/C=C/C3=C(C)CCCC3(C)C)cc2)cc1 | 20
CC(=O)Nc1ccc(C(=O)Nc2ccccc2N)cc1 [TACEDINALINE] | 170
CCCC(=O)OCc1ccc(OC(=O)/C=C(C)/C=C/C=C(C)/C=C/C2=C(C)CCCC2(C)C)cc1 | 10
CC1=C(/C=C/C(C)=C/C=C/C(C)=C/C(=O)OCOC(=O)NCC(=O)Nc2ccccc2NC(=O)c2ccc(CNC(=O)OCc3cccnc3)cc2)C(C)(C)CCC1 | 940
